Reference for the values: patent US10941182

Target: T1, rat APJ receptor (rat, UniProt Q9JHG3 1-377)
T1 sequence (looked up): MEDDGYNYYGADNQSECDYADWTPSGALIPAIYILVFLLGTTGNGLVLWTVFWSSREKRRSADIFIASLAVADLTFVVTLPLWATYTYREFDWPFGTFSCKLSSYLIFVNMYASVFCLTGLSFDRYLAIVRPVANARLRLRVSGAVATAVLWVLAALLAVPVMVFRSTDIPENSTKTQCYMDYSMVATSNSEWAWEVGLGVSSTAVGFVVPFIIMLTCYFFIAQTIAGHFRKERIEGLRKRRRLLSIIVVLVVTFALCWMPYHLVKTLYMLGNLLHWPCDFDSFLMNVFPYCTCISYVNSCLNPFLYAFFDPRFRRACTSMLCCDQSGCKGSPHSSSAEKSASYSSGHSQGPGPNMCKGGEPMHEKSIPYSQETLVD
Test: cell-based or functional assay
Starred links: 1 amine or outer side, 2 acyl side, 3 side chain; linkers in the order of their positions; H or OH if unused. Non-standard residues stand in square brackets, D forms with d. *: point of attachment. AC4Abu = α-carboxy-4-aminobutyric acid, O=C(C(CCN[*:1])C(=O)[*:3])[*:2]; dBip = N[C@H](Cc1ccc(-c2ccccc2)cc1)C(=O)O; Oic = O=C(O)[C@@H]1C[C@@H]2CCCC[C@@H]2N1; Phe(4-Cl) = N[C@@H](Cc1ccc(Cl)cc1)C(=O)O; dPhe(4-Cl) = N[C@H](Cc1ccc(Cl)cc1)C(=O)O; Phe(4-I) = N[C@@H](Cc1ccc(I)cc1)C(=O)O; γGlu = O=C(O)[C@H](CCC(=O)[*:2])N[*:1]; d(β3hF) = N[C@@H](CC(=O)O)Cc1ccccc1; NMeR = CN[C@@H](CCCNC(=N)N)C(=O)O; Palmitoyl = CCCCCCCCCCCCCCCC(=O)*; Tridecanoyl = CCCCCCCCCCCCC(=O)*; hArg = N=C(N)NCCCC[C@H](N)C(=O)O; Cha = N[C@@H](CC1CCCCC1)C(=O)O; NMeL = CN[C@@H](CC(C)C)C(=O)O; αMeL = CC(C)C[C@](C)(N)C(=O)O; αMeP = C[C@@]1(C(=O)O)CCCN1; Nle = CCCC[C@H](N)C(=O)O; AEEA = NCCOCCOCC(=O)O; Nip = nipecotic acid; BLeu = β-leucine
measurementLabel: EC50 Rat APJ Receptor (nM)
Field: numeric (nM). Do not append units.

Below, each entry is followed by its recorded EC50 Rat APJ Receptor result.
Palmitoyl-[γGlu][AEEA][AEEA][dQ]RP[NMeR][Cha]SHKG[Oic][Nle][Nip][dPhe(4-Cl)]-OH [SEQ ID NO: 602]: 25.6
Tridecanoyl-[AC4Abu][AEEA][AEEA][BLeu]R[αMeP][hArg][αMeL]SHKG[Oic][Nle][αMeP][Phe(4-Cl)]-OH [SEQ ID NO: 552]: 4.88
Tridecanoyl-[γGlu][AEEA][AEEA][BLeu]RP[NMeR][αMeL]SHKG[Oic][Nle]P[Phe(4-Cl)]-OH [SEQ ID NO: 374]: 0.503

According to the records, this binder Palmitoyl-[AC4Abu][AEEA][AEEA][dQ]RP[NMeR][Cha]SHKG[Oic][Nle][d(β3hF)]-OH (SMILES CCCCCCCCCCCCCCCC(=O)NCCC(C(=O)O)C(=O)NCCOCCOCC(=O)NCCOCCOCC(=O)N[C@H](CCC(N)=O)C(=O)N[C@@H](CCCNC(=N)N)C(=O)N1CCC[C@H]1C(=O)N(C)[C@@H](CCCNC(=N)N)C(=O)N[C@@H](CC1CCCCC1)C(=O)N[C@@H](CO)C(=O)N[C@@H](Cc1c[nH]cn1)C(=O)N[C@@H](CCCCN)C(=O)NCC(=O)N1[C@H](C(=O)N[C@@H](CCCC)C(=O)N[C@@H](CC(=O)O)Cc2ccccc2)C[C@@H]2CCCC[C@@H]21) [SEQ ID NO: 573] displays EC50 Rat APJ Receptor of 4.24

EC50 Rat APJ Receptor reading for Ac-[hArg][dR]QEP[dR][NMeL]SHKG[Oic][Phe(4-I)]P[dBip]-OH [SEQ ID NO: 77] : 2.84
